# tested.system: STING variants (WT) (Homo sapiens, UniProt Q86WV6)
# Construct: host or cells: HEK-Blue ISG KO-STING cells (Invivogen, hkb-kostg)
# assay.protocol: SEAP reporter assay in HEK-Blue ISG KO-STING cells transfected with STING WT variant (Method 2, 1 ng vector)
# Type: cell-based
# measurement.parameters: compound concentration 2.5 (mM as printed); 24 h; SEAP signal ratio to 0.5% DMSO
Overview of reported Fold change related to DMSO control, WT across a group of molecules:
State the answer as a number, implicitly in fold.

The cases that follow already have their Fold change related to DMSO control, WT on record.
# molecule, experimental.endpoint, unit, reported.result
measured = [
    ("CCn1nc(C)c(F)c1C(=O)Nc1nc2cc(C(N)=O)cc3c2n1[C@@H](C(C)C)CO3 [Example 54]", "Fold change related to DMSO control, WT", "fold", 2.29),
    ("CCn1nc(C)c(F)c1C(=O)Nc1nc2cc(C(N)=O)cc3c2n1CCCO3 [Example 65]", "Fold change related to DMSO control, WT", "fold", 1.63),
]

# return Fold change related to DMSO control, WT of CCN1CC(C)(C)Cn2c(NC(=O)c3cc(C)nn3CC)nc3cc(C(N)=O)cc1c32 [Example 69] (system: STING variants (WT) (Homo sapiens, UniProt Q86WV6)) 7.69

# return Fold change related to DMSO control, WT of CCn1nc(C)cc1C(=O)Nc1nc2cc(C(N)=O)cc3c2n1C[C@@H](CO)O3 [Example 52] (system: STING variants (WT) (Homo sapiens, UniProt Q86WV6)) 0.82
